B1: glmS ribozyme (parent)
chain: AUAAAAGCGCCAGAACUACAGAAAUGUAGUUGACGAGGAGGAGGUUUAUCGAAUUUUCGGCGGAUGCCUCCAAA

# Variants of: B1
# Assay comment: kcat; higher = faster cleavage; RNA array
# Details: with glucosamine-6-phosphate
Variants at the floor of the assay were thinned out.
Entry flag: t if kcat reaches 0.0004 s⁻¹; f if it does not.

{"columns": ["Sequence variant", "Label value"],
 "data": [
  ["A15U A39G C71G", "f"]
]}

Query: Please check the record A15G C16G and state if its kcat is at or above 0.0004 s⁻¹.
Reply: t

Query: Does kcat meet or surpass 0.0004 s⁻¹ for U31C A53U ?
Reply: t

Query: Confirm if kcat reported for the variant U46C C58A is 0.0004 s⁻¹ or above.
Reply: t

Query: Please indicate if the recorded kcat for A6G G37U meets or exceeds 0.0004 s⁻¹.
Reply: f

Query: Hi team, for G37A U47G , is the recorded kcat at or above 0.0004 s⁻¹?
Reply: t

Query: I'd appreciate it if you could say whether A52G U56A has kcat at least equal to 0.0004 s⁻¹.
Reply: t

Query: Tell me whether kcat is at least 0.0004 s⁻¹ here: U45G C70U
Reply: t

Query: I'd appreciate it if you could say whether C68A C71G has kcat at least equal to 0.0004 s⁻¹.
Reply: f
